Test: qHTS for Inhibitors of human tyrosyl-DNA phosphodiesterase 1 (TDP1): qHTS in cells in absence of CPT; note: nearly all actives have a fitted effect of over 55% in size
Condition summary: DT40 Tdp1-/- hTDP1 cells, no CPT, ATP luminescence, 48 h
In all, about 420,000 compounds went through this assay and about 64,000 (15%) were called active. Not shown: some 27% with an inconclusive outcome. Calls come from the whole dose curve; as a rule, active = well fitted inhibition curve with a large enough effect; inconclusive = small, poorly fitted or top-dose-only effect; inactive = flat fitted curve, though single readings scatter. Not all results are given here.
Answer with one of the outcomes Yes for active, No for inactive

Compound	Cat
C#CCOCCOCCOCCNc1nc(N2CCN(C(=O)[C@H](CCCN=C(N)N)n3cc(C(N)[C@@H](C)CC)nn3)CC2)nc(N2CCN(C(=O)[C@H](CO)n3cc([C@@H](N)C(C)C)nn3)CC2)n1 (some centres undefined)	No
CN1CCN(C(=O)c2ccccc2NC(=O)COc2ccccc2Cl)CC1	No
c1ccc(Nc2n[nH]nc2-c2ccccc2)cc1	No
Cc1cc(C(=O)COc2ccccc2Cl)c(C)n1C1CC1	Yes
CC(=O)Nc1ccc(CN2CCC(Oc3ccc(C(=O)N4CCCC4)cc3)CC2)cc1	No

Prompt line: For this compound, state the assay outcome: CC(CC(=O)Nc1ccc(F)cc1F)S(=O)(=O)c1ccc2c(c1)NC(=O)CO2 (centres undefined)
Response line: No

Prompt line: For this compound, state the assay outcome: `O=C1CCN(CCCc2ccccc2)CCN1CCO`
Response line: No

Prompt line: For this compound, state the assay outcome: CN[C@@H]1[C@@H](O)[C@@H](O[C@@H]2[C@H](O)[C@H](O[C@H]3OC(CN)=CC[C@H]3N)[C@@H](N)C[C@H]2N)OCC1(C)O (some centres undefined)
Response line: No

Prompt line: For this compound, state the assay outcome: CCC(C)n1[nH]c(=O)c2c(C)cc(C)nc21 (centres undefined)
Response line: No

----------
Test: qHTS for Inhibitors of human tyrosyl-DNA phosphodiesterase 1 (TDP1): qHTS in cells in absence of CPT; note: nearly all actives have a fitted effect of over 55% in size
Condition summary: DT40 Tdp1-/- hTDP1 cells, no CPT, ATP luminescence, 48 h
Among all 420,000 compounds or so, about 64,000 (15%) were called active. Inconclusive results (about 27%) are left out. Calls come from the whole dose curve; as a rule, active = well fitted inhibition curve with a large enough effect; inconclusive = small, poorly fitted or top-dose-only effect; inactive = flat fitted curve, though single readings scatter. These entries were drawn from the full list.
Answer with one of the outcomes true (1) for active, false (0) for inactive

Study these solved cases before continuing.
Smiles string	Cat
CCOC(=O)c1c(N)n(-c2cccc(C)c2C)c2nc3ccccc3nc12	false (0)
CCCOc1ccc(Cc2c(O)nc(N)[nH]c2=O)cc1C	false (0)

Now examine the next entry.
Prompt line: For this compound, state the assay outcome: `O=[N+]([O-])c1cc(Br)c(O)c(/C=N/Nc2nc3ccccc3s2)c1`
Response line: true (1)

----------
Test: qHTS for Inhibitors of human tyrosyl-DNA phosphodiesterase 1 (TDP1): qHTS in cells in absence of CPT; note: nearly all actives have a fitted effect of over 55% in size
Condition summary: DT40 Tdp1-/- hTDP1 cells, no CPT, ATP luminescence, 48 h
Among all 420,000 compounds or so, about 64,000 (15%) were called active. Inconclusive results (about 27%) are left out. Calls come from the whole dose curve; as a rule, active = well fitted inhibition curve with a large enough effect; inconclusive = small, poorly fitted or top-dose-only effect; inactive = flat fitted curve, though single readings scatter. Only a sample is shown.
Answer with one of the outcomes active, inactive

Study these solved cases before continuing.
Molecule	Cat
CCOC(=O)c1[nH]c2ccccc2c1N=C(C)N(CC)CC	inactive
CC(=O)N(C)c1ccc(NC(=O)Nc2cccc3ccccc23)cc1	inactive

Prompt line: For this molecule, state the assay outcome: CCN(CC)C(=O)C1=C(C)N(Cc2ccc(OC)cc2)C(=O)C(CC(=O)NCc2ccco2)C1 (centres undefined)
Response line: inactive

Prompt line: For this molecule, state the assay outcome: `CCn1c(SCC(=O)Nc2sc(C)c(C)c2C#N)nnc1C1CC1`
Response line: inactive

Prompt line: For this molecule, state the assay outcome: CC1=C(C(=O)N(C)C)CC(CC(=O)NCCN2CCOCC2)C(=O)N1Cc1ccccc1 (centres undefined)
Response line: inactive

Prompt line: For this molecule, state the assay outcome: `C=CCn1c(C)cc(C2=NNC(=NCC)SC2)c1C`
Response line: active

Prompt line: For this molecule, state the assay outcome: `COCCn1c(C)cc(C2=NNC(=Nc3ccc(F)cc3)SC2)c1C`
Response line: active

Prompt line: For this molecule, state the assay outcome: `CCCOc1cccc(C(=O)Nc2cccc(NC(=O)c3ccc(C(C)(C)C)cc3)c2)c1`
Response line: active

Prompt line: For this molecule, state the assay outcome: `CCOC(=O)c1ccccc1C(=O)N1CCOCCOCCOCC1`
Response line: inactive

Prompt line: For this molecule, state the assay outcome: `COC(=O)c1ccccc1NC(=O)c1ccccc1NS(C)(=O)=O`
Response line: inactive

Prompt line: For this molecule, state the assay outcome: `COc1cc(N=Cc2c(O)c3ccccc3oc2=O)c(OC)cc1Cl`
Response line: inactive

Prompt line: For this molecule, state the assay outcome: `COc1ccccc1CN1CCC(CNC(=O)c2cnn(-c3ccccc3Cl)c2C2CCN(C(=O)OC(C)(C)C)CC2)CC1`
Response line: active

Prompt line: For this molecule, state the assay outcome: `O=C(/C=C/c1ccc(F)cc1)NCCNC(=O)/C=C/c1ccc(F)cc1`
Response line: inactive

Prompt line: For this molecule, state the assay outcome: `CSc1nnc(-c2ccncc2)n1CCCN1CCCC1=O`
Response line: inactive

Prompt line: For this molecule, state the assay outcome: `O=C(O)c1cc2ccccc2c(=O)s1`
Response line: inactive

Prompt line: For this molecule, state the assay outcome: `COc1ccc(-c2cc(-c3ccc(F)cc3)nc3c2COc2ccccc2-3)cc1`
Response line: inactive
